This collection of values is drawn from patent US20190315842A1.

Biological target: T1, Sm (sphingomyelin)
T1 construct: in an ANA panel of nuclear antigens Sm is usually the Smith ribonucleoprotein antigen; Kept, but see recheck
Assay: AtheNA Multi-Lyte ANA, Ab at 50 ug/ml;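 also: monoclonal antibodies probed against a nuclear autoantigen panel (SSA, SSB, Sm, RNP, Scl-70, Jo-1, dsDNA, CentB, histones), with anti-HIV 4E10 and palivizumab as control antibodies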
Below, each entry is listed alongside its reported AtheNA signal.
Lab note: record the figure alone, no unit after it.

# example entries with known answers
{"binder": "Ab7955 (antibody, V domains shown, Recombinant human antibody with IgG1 heavy chain backbone and kappa light chain constant; also called mAb 7955; clone 19) VH: LVESGGGVVRPGRSLRLSCVASGFTFNAYGMHWVRQGPGKGLEWLAVISYEGKTVYYADSVKDRFTISRDNSRNTVSLHLNNLRGEDTAVYYCAKGSASAAVLQHWGQGTLVSVTS VL: MTQSPGSLAVSLGSRATINCKSSRSLLYRSNNKNYLAWYQQKPGQSPRLLIYWASSRESGVPDRFSGGGSGTSFTLTISSLQAEDVAVYYCQQYFNPPWTFGQGTKVEIK", "AtheNA signal": 10}
{"binder": "Ab7968 (antibody, IgG1, V domains shown, Recombinant human antibody with IgG1 heavy chain backbone and kappa light chain constant; they begin at LVESGGG and MTQSP; also called mAb 7968; mAb7968) VH: LVESGGGVVQPGRSLRLSCAASGFTFSRYGMHWVRQAPGKGLEWVAVMSYDGSTKYYADSVKGRFAISRDNPKNTLFLQMNSLRPDDTAVYYCAKGGAAAAVMDVWGKGTTVTVSS VL: MTQSPDSLTVSLGERATISCKSSQRLLYSSNNKNYLAWYQQKPGQPPKLLMYWASTRESGVPDRFSGSGSGTDFSLTISSLQAEDVAVYYCQQYYNPPWTFGQGTKVEVK", "AtheNA signal": 7}

The record that follows has no AtheNA signal shown yet.
stdin: For Ab7961/293i (antibody, IgG1, V domains shown, Recombinant human antibody with IgG1 heavy chain backbone and kappa light chain constant; they begin at LVESGGG and MTQSP; also called mAb 7961; clone 24) VH: LVESGGGVVQPGKSLRLSCVASGFTFSSYGMHWVRQAPGKGLEWVAVMSFDGKTKYYADSVKGRFTISRDNPKNTLYLQMNSLRSEDTAVYYCAKGGAAAAVFDSWGQGILLTVSS VL: MTQSPNSLAVSLGGRATINCKTSQSILYRSNNKNYLAWYQHKSGQPPKLLIYWASTRESGVPDRFSGSGSRTDFTLTISGLQAEDVAVYYCQQYYNPPWTFGQGTKVEIK , what is its reported AtheNA signal?
stdout: 6
